assay-remarks: NCI Yeast Anticancer Drug Screen. Data for the cln2 rad14 strain (AID 165)
cond: S. cerevisiae cln2 rad14 strain, at 50.0 µM (retest, dose inferred, filed as 5.0), hits give high values
This is part of a sample that, as a whole, favours compounds with a hit. Of some 79,000 tested, about 15% had one in any assay.
# binarize growth inhibition: threshold 2% inclusive, high side true, low side false

INSERT INTO assay_data (compound, category) VALUES
  ('C=C(CN(C)C)C(=O)c1ccc(Oc2ccccc2)cc1', 'true'),
  ('C[N+]1(Cc2ccc([N+](=O)[O-])cc2)CCC[C@H]1c1ccc[n+](Cc2ccc([N+](=O)[O-])cc2)c1 (stereo not given in full)', 'false'),
  ('CC1=C(C(=O)Nc2cccc(C(F)(F)F)c2)C(c2ccccc2F)C(C(=O)Nc2cccc(C(F)(F)F)c2)=C(C)N1', 'true'),
  ('CN(Cc1cnc2nc(N[Si](C)(C)C)nc(N[Si](C)(C)C)c2n1)c1ccc(C(=O)NC(CCC(=O)O[Si](C)(C)C)C(=O)O[Si](C)(C)C)cc1 (stereo not given)', 'true');
